Assay: Toxicity after single administration
Format: in vivo
Conditions: mouse, in vivo, po, mice, p.o., death-rate after 7 days, read-out: Acute toxicity LD50 approx.
Endpoint Name: LD50 at 168 h

>>> recorded_result("O=C(O)CCC(=O)N1CCSC1 [Compound 4, 4-oxo-4-(3-thiazolidyl)-butanoic acid]")
"~4000 mg/kg"

Give measured LD50 at 168 h for every item shown.
1. N[C@@H](CSCC(=O)N1CCSC1)C(=O)O [Compound 8]
2. CCC1SCCN1C(=O)C1C2C=CC(C2)C1C(=O)O (stereo not shown) [Compound 2]
3. CC1(C(=O)N2CCSC2)CCC(C(=O)O)C1(C)C (stereo not shown) [Compound 12]
4. O=C(O)C1C2C=CC(C2)C1C(=O)N1CCSC1 (stereo not shown) [Compound 3]
5. CC(SCC(=O)N1CCSC1)C(=O)NCC(=O)O (stereo not shown) [Compound 9]
6. O=C(CCC(=O)N1CCSC1)N1CCSC1 [Compound 7, 1,4-Bis-(3-thiazolidyl)-1,4-dioxo-butane]

Resp:
> 4000 mg/kg
~3000 mg/kg
> 4000 mg/kg
~1500 mg/kg
> 4000 mg/kg
~3000 mg/kg

Data origin: patent US4775676A
